The reported measurements were obtained from ChEMBL document CHEMBL3227956.

- Assay Procedure: Toxicity in mouse allografted with mouse ADJ/PC6 cells
Parameter: LD50 (mg/kg)

Molecule	Parameter	Reported Value
O=P1(N(CCCl)CCCl)NCCCO1 (racemic) [CYCLOPHOSPHAMIDE ANHYDROUS]	LD50	450

====

- Assay Procedure: Therapeutic index, ratio of LD50 for mouse allografted with mouse ADJ/PC6 cells to ED90 for mouse ADJ/PC6 cells allografted in mouse

Compound	selectivity ratio
O=P1(N(CCCl)CCCl)NCCCO1 (racemic) [CYCLOPHOSPHAMIDE ANHYDROUS]	95
